Assign Potency to each entry below.
- assayed.target: Glucocorticoid receptor (Homo sapiens)
- assay.comment: GR-GFP Redistribution (AID 450); note: potency is the fitted concentration of half-maximal effect
- measurement.setup: U2OS GR-GFP nuclear translocation, laser cytometry, 2 h
Calls of active or inactive are those of the source.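 Rule for the calls: active = compounds whose dose series gives a full or clear partial fitted curve of increased nuclear translocation; inconclusive = weak partial curve or effect only at the top dose; inactive = no dose-dependent translocation response.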

Asked: Fill in the recorded Potency for this molecule, with Glucocorticoid receptor (Homo sapiens) as test system: `COc1ncc2nc(C)c(=O)n(Cc3ccc(F)cc3)c2n1`
Given back: > 9.22 µM (inactive)

Asked: Another molecule to look at: `Cc1cccc(CNc2ncnc3ccc(-c4ccccc4C#N)cc23)c1`
Given back: > 46 µM (inactive)

Asked: Param item: `COc1ccccc1-c1cncnc1Nc1ccccc1`
Given back: > 46 µM (inactive)

Asked: // query: `CNc1nc(-c2cccc(C#N)c2)nc2ccccc12`
Given back: > 46 µM (inactive)

Asked: And `COCCn1c(=O)c(C)nc2cnc(Nc3cccc(OC)c3)nc21` ?
Given back: > 9.22 µM (inactive)

Asked: Now the same for `COc1ccc2[nH]cc(CCNc3cc(-c4ccccc4C)ncn3)c2c1`
Given back: > 46 µM (inactive)

Asked: One more molecule: `CN(C)C(=O)c1ccc(-c2cncnc2-n2ccnc2)cc1`
Given back: > 46 µM (inactive)

Asked: Can you handle `c1cncc(-c2ccc3ncnc(NC4CCNCC4)c3c2)c1` next?
Given back: > 46 µM (inactive)

Asked: For `CN(Cc1ccco1)c1ncncc1-c1cccc(NS(C)(=O)=O)c1` then?
Given back: > 46 µM (inactive)

Asked: And then `COc1ccc(C[C@@H]2c3cc(OC)c(OC)cc3CC[N@+]2(C)CCC(=O)OCCCCCOC(=O)CC[N@@+]2(C)CCc3cc(OC)c(OC)cc3[C@H]2Cc2ccc(OC)c(OC)c2)cc1OC` , what is it?
Given back: > 20.6 µM (inactive)

Where do the numbers come from? From PubChem BioAssay (NCATS).
